Catalogue of inhibition readings, one per entry.
assay: M. tuberculosis growth inhibition, HTS (AID 449762);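 further: bacterial growth assessed after seven days of incubation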; settings: M. tuberculosis H37Rv growth inhibition, 7H9 media; at 25 µM; active compounds read high
The whole screen tested about 330,000 compounds, of which about 1,900 (0.58%) were called active. Another 4% or so got no clear call; they are omitted. Not all results are given here. Entries with a potency or affinity are not part of this list.
Endpoint label: inhibition

> print(dat)
                                    molecule             result
 1  COc1cc(C(=O)NCCc2cn3ccc(C)cc3n2)cc(OC)c1OC  -5.75% (inactive)
 2           CCOC(=O)c1ccc(-c2ccc(C=O)o2)cc1   12.7% (inactive)
 3  CCOc1ccc(OCCNC(=O)C(NC(=O)c2c(F)cccc2F)C(C)C)cc1 (stereo not drawn)  -12.3% (inactive)
 4  O=C(CN1C(=O)NC2(CCCC2)C1=O)OCc1cccc(Br)c1   -6.4% (inactive)
 5    COc1ccc(/C=N/n2c(C)nc3ccccc3c2=O)cc1OC   7.03% (inactive)
 6  COc1cccc(Nc2c([N+](=O)[O-])cncc2[N+](=O)[O-])c1   65.1% (inactive)
 7  Cc1ccc(-c2c[n+](CC(=O)c3cccs3)c3n2CCC3)cc1   -3.4% (inactive)
 8  CC(Sc1nnc(-c2cccs2)n1-c1ccccc1)C(=O)NCc1ccc2c(c1)OCO2 (stereo not drawn)  -16.1% (inactive)
 9  Cc1ccc(C23OCCN2CCn2nc4ccccc4c23)cc1 (stereo not drawn)  -9.54% (inactive)
10  COc1ccccc1NC(=O)N(Cc1ccccc1)C1=NCC(C)S1 (stereo not drawn)   6.61% (inactive)
11  Cn1c(NC(=O)C[n+]2cc(-c3ccc(Cl)cc3)n3c2CCC3)cc(=O)n(C)c1=O  -2.19% (inactive)
12              CCCCNC(=S)N(C)/N=C/c1ccccc1F   7.41% (inactive)
13   CCN(CC)CCCNC(=O)c1cc2c(Cl)nc3ccccc3c2s1   5.92% (inactive)
14  Cc1ccc(S(=O)(=O)NCc2ccc(C(=O)NCCCN3CCN(C)CC3)cc2)cc1  -4.79% (inactive)
15  Cc1ccc(-c2c[n+](CC(=O)Nc3c(C)cccc3C)c3n2CCC3)cc1   11.9% (inactive)
16  Cc1ccc(NC(=O)C[n+]2cc(-c3ccccc3)n3c2CCC3)cc1   5.89% (inactive)
17              COCC(=O)NC(c1ccccc1)c1ccccc1   1.57% (inactive)
18             O=C(N/N=C\c1ccc(Cl)s1)c1cccs1   63.3% (inactive)
19           CCCCNC(=S)N(C)/N=C/c1c(F)cccc1F  -1.55% (inactive)
20       O=C(CNC(=O)c1ccc(F)cc1)c1ccc(Cl)cc1   6.46% (inactive)
21      CCCc1cc(C(=O)OC)c(NC(=O)CCCC(=O)O)s1   0.02% (inactive)
22  O=C(Nc1ccc2c(c1)OCO2)c1c(F)c(F)c(F)c(F)c1F   2.74% (inactive)
23  CC(=O)NC(C)(CC(=O)c1ccccc1)c1ccccc1 (stereo not drawn)  -8.86% (inactive)
24                    COc1ccc(NC(C)=O)c(C)c1  -2.52% (inactive)
25  Cc1ccc(Cl)cc1-n1c(O)c(C=NCCCN2CCOCC2)c(=O)[nH]c1=O  -2.44% (inactive)
26               CCc1cc2c(=O)n(CC(C)C)cnc2s1   13.2% (inactive)
27  COc1ccc(N2CCN(C(=O)CCS(=O)(=O)c3ccc4c(c3)NC(=O)C(C)S4)CC2)cc1 (stereo not drawn)   6.18% (inactive)
28  Cc1ccc(NC(=O)Cn2c3ccc(F)cc3c3nc4n(c(=O)c32)CCS4)cc1F   6.34% (inactive)
29        CCCOC(=O)c1cc(-c2ccc(C=O)o2)ccc1Cl   9.94% (inactive)
30  CS(=O)(=O)c1ccc(Cl)c(NC(=O)COC(=O)CCN=C2NS(=O)(=O)c3ccccc32)c1  -3.06% (inactive)
31     Cc1ccc(F)cc1NC(=O)c1c(-c2ccccc2)noc1C  -8.46% (inactive)
32  COc1ccc(OCC(O)Cn2c(=N)n(Cc3ccccc3)c3ccccc32)cc1 (stereo not drawn)   26.5% (inactive)
33  O=C(CCC(=O)N(c1ccc(F)cc1)C(C(=O)NC1CCCC1)c1ccncc1)Nc1cccnc1 (stereo not drawn)  -10.1% (inactive)
